test-target: HLA-B*14:02
method-description: IEDB peptide-MHC binding, purified MHC/competitive/fluorescence; bounds were set here for any values at or beyond the usual limits of such assays
condition-label: source organism: Monodelphis domestica
pIC50: −log10 of the molar value.
property: pIC50

>>> assay_result("FLLPILSQIYT")
"≤ 4.70"

====

test-target: HLA-B*15:17
method-description: IEDB peptide-MHC binding, purified MHC/competitive/fluorescence; filed as Kd, often an IC50 or EC50 that approximates it; bounds were set here for any values at or beyond the usual limits of such assays
condition-label: source organism: Entamoeba dispar SAW760
property: Kd

>>> assay_result("FELLHFISS")
"≥ 20 µM"
